Values compiled from patent US7405063B2.

Listing of entries alongside the reported Absorbance at 600 nm.
# Tested on: C. tropicalis
# Assay Remarks: Toxicity tests of additional substrates (absorbance at 600 nm)
# Assay type: cell-based
# Test Conditions: substrate concentration 0.06%, 24 hours, added without solvent
API doc: respond with a numeric literal and nothing else, no unit.

Guide cases for Absorbance at 600 nm, answers given:
Compound: CCCCC(CC)C1OCCN1CCCC (stereo not shown) [3-Butyl-(ethylpentyl)oxazolidine, 3-Butyl-2(1-ethylpentyl)oxazolidine]
Parameter Measured: Absorbance at 600 nm
Experimental Result: 12.5

Compound: CCC1CCCCC1 [Ethylcyclohexane]
Parameter Measured: Absorbance at 600 nm
Experimental Result: 9.45

Compound: CCCCC(=O)C(C)C [2-Methyl-3-heptanone]
Parameter Measured: Absorbance at 600 nm
Experimental Result: 19.2

Query: Absorbance at 600 nm; subject: CC1CCCCC1 [Methylcyclohexane]
13.7
